Overview of recorded IC50 for various compounds
Tested on: SUDHL5 cells
TEST: Antiproliferation assay SUDHL5 (Assay 7)
Format: cell-based
EXPERIMENTAL SETUP: Homo sapiens, SU-DHL-5, 72 h, 72 h, CellTiter-Glo; read-out: Antiproli SUDHL5 IC50 (median)

[
  {
    "COMPOUND": "CCc1c2c(nn1C)C(Cc1ccccc1)OCCCCn1c(C(=O)O)c(CCCOc3cccc4cc(F)ccc34)c3ccc(Cl)c-2c31 (racemic)",
    "IC50, nM": 1200
  },
  {
    "COMPOUND": "Cc1c2c(nn1C)C(CCN1CCOCC1)OCCCCn1c(C(=O)O)c(CCCOc3cccc4ccccc34)c3ccc(Cl)c-2c31 (racemic)",
    "IC50, nM": 110
  },
  {
    "COMPOUND": "CCc1c2c(nn1C)C(CCC1CCOCC1)OCCCCn1c(C(=O)O)c(CCCOc3cccc4cc(F)ccc34)c3ccc(Cl)c-2c31 (racemic)",
    "IC50, nM": 65
  },
  {
    "COMPOUND": "CCc1c2c(nn1C)C1CCCCN1CCCCn1c(C(=O)O)c(CCCOc3cccc4ccccc34)c3ccc(Cl)c-2c31 (racemic) [Example 103]",
    "IC50, nM": 2000
  },
  {
    "COMPOUND": "CCc1c2c(nn1C)C(CCO)OCCCCn1c(C(=O)O)c(CCCOc3cccc4cc(F)ccc34)c3ccc(Cl)c-2c31 (racemic) [Example 44]",
    "IC50, nM": 140
  },
  {
    "COMPOUND": "CCc1c2c(nn1C)C(CCN(C)OC)OCCCCn1c(C(=O)O)c(CCCOc3cccc4cc(F)ccc34)c3ccc(Cl)c-2c31 (racemic)",
    "IC50, nM": 170
  }
]
